# subjectOfTest: Transcriptional activator protein LasR (Pseudomonas aeruginosa (strain ATCC 15692 / PAO1 / 1C / PRS 101 / LMG12228), UniProt P25084)
# Sequence (P25084 whole entry): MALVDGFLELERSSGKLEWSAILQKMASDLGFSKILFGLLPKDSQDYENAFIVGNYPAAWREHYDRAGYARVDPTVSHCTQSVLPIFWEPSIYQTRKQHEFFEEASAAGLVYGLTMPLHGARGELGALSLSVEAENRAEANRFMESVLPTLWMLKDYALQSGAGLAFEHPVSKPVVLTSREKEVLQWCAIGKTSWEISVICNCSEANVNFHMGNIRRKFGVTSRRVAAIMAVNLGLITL
# assayProcedure: Antagonist activity at Pseudomonas aeruginosa LasR expressed in Escherichia coli DH5alpha assessed as inhibition of protein interaction with OdDHL after 1.5 hrs by beta-galactosidase reporter gene assay
# IC50 annotations
Give a bare numeral; the unit nM is implied.

smiles=O=C(Cc1cccc(I)c1)N[C@H]1CCOC1=O reportedproperty=IC50 observed=1720

Inquiry: Return the recorded IC50 value; entry: O=C(CCCC1CCCCC1)N[C@H]1CCOC1=O
Reply text: 10000

Inquiry: Assign IC50 to the following record: CCCCCCCC(=O)N[C@H]1CCOC1=O
Reply text: 340

Inquiry: Specify reported IC50 for the molecule shown: O=C(CCc1ccc(Br)cc1)N[C@H]1CCOC1=O
Reply text: 250

Inquiry: Item CCCCCCCOc1ccc(C(=O)N[C@H]2CCOC2=O)cc1 : provide IC50
Reply text: 1000
